# System: OVCAR-8 ovarian
# experiment notes: NCI-60 one-dose screen, 48 h
# test parameters: 10 µM
The panel holds about 83,000 compounds, 20% with a hit somewhere; the sample as a whole holds those more often. The source made the active and inactive calls. Rule for the calls: active = growth percent below 10; inactive = the rest.
Bench note: report the call from yes (1) for active, no (0) for inactive

NC1=NC(c2ccccc2Cl)N=C(Nc2nn[nH]n2)N1 (stereo not drawn) : no (0)

Record lookup: outcome of this test for COC[C@@H](CC(C)C)N=C1NC(=O)/C(=C/c2ccc3ncoc3c2)N1 ?
no (0)

* * *

# Tested on: MDA-MB-435 melanoma
# experiment notes: NCI-60 one-dose screen, 48 h (100 = growth as untreated, 0 = no growth, -100 = all killed)
# test parameters: 10 µM
About 83,000 compounds went through this panel and 20% of them were active in at least one assay; those are over-represented in the sample as a whole.
test readout: growth (%)
Kindly answer with a numeric value in %, unit omitted.

Solved cases below.
CCOc1ccc(/C=N/NC(=O)Cn2nc(Cc3ccc([N+](=O)[O-])cc3)c3onc(C)c3c2=O)cc1 : 49.7
COc1ccc(C=CC(=O)c2ccc(-n3c(C)nc4c(cnn4-c4ccccc4)c3=O)cc2)cc1 : 11.2
Cn1cc(/C=N/Nc2cccc(Cl)n2)c2ccccc21 : 10.7
O=C(Cc1ccc2c(c1)CN(C1CCC(=O)NC1=O)C2=O)NCCc1ccccc1 (centres undefined) : 35
O=c1c2ccccc2nc(COc2ccccc2)n1/N=C/c1ccc(F)cc1 : 86.2

Could you please provide reported growth for CCCn1c(=O)c2[nH]c(-c3ccc(OCc4nc5ccccc5[nH]4)cc3)nc2n(CCC)c1=O ? Thanks!
67

Could you please provide reported growth for COc1ccc(CCN2C(=O)/C(=C/c3csc(C#N)n3)SC2=S)cc1 ? Thanks!
-23.6

Could you please provide reported growth for O=C(c1ccc(O)cc1)C1[C@H](c2ccc(Br)cc2)[C@@H](c2ccccc2)NC12C(=O)Nc1ccc(Br)cc12 (some centres undefined) ? Thanks!
-25.1

Could you please provide reported growth for N#Cc1ccc(NC(=O)CSc2ccc(-c3ccc(Br)cc3)nn2)cc1 ? Thanks!
65.1

Could you please provide reported growth for CC1(c2ccccc2)NC(=O)N(CC(=O)Nc2ccc(C(=O)/C=C/c3ccc(Cl)cc3)cc2)C1=O (centres undefined) ? Thanks!
-76.4

Could you please provide reported growth for CCOc1ccc(Nc2nc3ccccc3nc2Nc2ccc(OCC)cc2)cc1 ? Thanks!
52.9

Could you please provide reported growth for COc1ccc([C@H]2C(C(=O)c3ccc(Cl)cc3)C3(N[C@@H]2c2ccccc2)C(=O)Nc2ccc(Br)cc23)cc1 (some centres undefined) ? Thanks!
-36.6

Could you please provide reported growth for CCOC(=O)C1=C(N)N(c2ccc(C)cc2)C2=C(C(=O)CC(C)(C)C2)C1c1ccccc1OC (centres undefined) ? Thanks!
111
